Reported values of remaining at 2 h, 5 µM for individual entries
# assay-protocol: Metabolic stability in mouse liver microsomes assessed as compound remaining level at 5 uM after 2 hrs in presence of G-6-P, G-6-PDH, MgCl2 and NADP+ by LC-MS/MS analysis
# Type: ADME, microsome
# test-settings: read-out: Stability
Reply numerically in %, unit not repeated.

Lookup: // returns reported remaining at 2 h, 5 µM for input NC(=O)c1ccc(Oc2cccc(C(=O)N3CCN(c4ccc(F)cc4)CC3)c2)cc1
Found: 39

Lookup: // returns reported remaining at 2 h, 5 µM for input NC(=O)c1ccc(Oc2cccc(C(=O)N3CCC(c4ccc(F)cc4)CC3)c2)cc1
Found: 16.4

Here is another compound to look at.
Lookup: // returns reported remaining at 2 h, 5 µM for input NC(=O)c1ccc(Oc2cccc(C(=O)N3CCC(O)(c4ccc(F)cc4)CC3)c2)cc1
Found: 45.3

----------
# assayed-target: Protein mono-ADP-ribosyltransferase PARP10 (Homo sapiens, UniProt Q53GL7)
# Sequence (Q53GL7 whole entry): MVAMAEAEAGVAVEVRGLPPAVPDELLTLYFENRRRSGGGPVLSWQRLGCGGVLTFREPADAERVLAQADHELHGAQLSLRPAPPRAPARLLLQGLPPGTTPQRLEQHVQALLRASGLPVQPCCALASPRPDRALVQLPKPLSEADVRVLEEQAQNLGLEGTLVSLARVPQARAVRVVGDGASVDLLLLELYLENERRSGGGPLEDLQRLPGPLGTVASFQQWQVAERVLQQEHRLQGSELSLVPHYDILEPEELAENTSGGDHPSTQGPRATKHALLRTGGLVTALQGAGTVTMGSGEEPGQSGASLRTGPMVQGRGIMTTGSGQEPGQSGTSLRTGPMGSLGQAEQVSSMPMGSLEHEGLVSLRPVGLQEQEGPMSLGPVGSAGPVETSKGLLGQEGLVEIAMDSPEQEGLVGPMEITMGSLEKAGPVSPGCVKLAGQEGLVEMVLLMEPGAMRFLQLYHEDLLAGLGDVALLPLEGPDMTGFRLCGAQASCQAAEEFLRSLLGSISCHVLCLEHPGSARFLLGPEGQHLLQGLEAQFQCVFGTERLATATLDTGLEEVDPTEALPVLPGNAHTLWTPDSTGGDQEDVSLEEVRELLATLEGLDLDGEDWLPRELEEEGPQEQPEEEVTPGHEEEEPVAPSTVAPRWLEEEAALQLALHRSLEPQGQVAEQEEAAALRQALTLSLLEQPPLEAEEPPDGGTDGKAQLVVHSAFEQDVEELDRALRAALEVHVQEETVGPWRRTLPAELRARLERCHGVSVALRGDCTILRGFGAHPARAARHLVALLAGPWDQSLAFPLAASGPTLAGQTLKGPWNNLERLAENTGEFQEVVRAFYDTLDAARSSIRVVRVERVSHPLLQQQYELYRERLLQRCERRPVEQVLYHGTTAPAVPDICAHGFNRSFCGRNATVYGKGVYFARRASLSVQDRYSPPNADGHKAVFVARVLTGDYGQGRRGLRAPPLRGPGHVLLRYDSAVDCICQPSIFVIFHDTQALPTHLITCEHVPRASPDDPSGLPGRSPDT
# assay-protocol: Inhibition of full length recombinant His6-tagged human PARP10 expressed in Escherichia coli BL21(DE3) preincubated for 15 mins followed by biotinylated NAD+ addition by chemiluminescence assay
Reported values of IC50 for individual entries
Reply numerically in nM, unit not repeated.

Lookup: // returns reported IC50 for input NC(=O)c1ccc(Oc2cccc(C(N)=O)c2)cc1
Found: 510

Lookup: // returns reported IC50 for input NC(=O)c1ccc(Oc2cccc(C(=O)N3CCC(c4ccccc4F)CC3)c2)cc1
Found: 470

Lookup: // returns reported IC50 for input NC(=O)c1ccc(Oc2ccc(C(=O)N3CCC(c4ccc(F)cc4)CC3)cc2)cc1
Found: 1650

Lookup: // returns reported IC50 for input NC(=O)c1ccc(Oc2ccc(C(=O)N3CCC(c4cccc(F)c4)CC3)cc2)cc1
Found: 1220

Lookup: // returns reported IC50 for input NC(=O)c1ccc(Oc2cccc(C(=O)N3CCC(O)(c4ccccc4)CC3)c2)cc1
Found: 1500

Here is another compound to look at.
Lookup: // returns reported IC50 for input CCOC(=O)C1CCN(C(=O)c2cccc(Oc3ccc(C(N)=O)cc3)c2)CC1
Found: 1060

----------
# assayed-target: UniProtKB Q460N3
# Sequence (Q460N3 whole entry): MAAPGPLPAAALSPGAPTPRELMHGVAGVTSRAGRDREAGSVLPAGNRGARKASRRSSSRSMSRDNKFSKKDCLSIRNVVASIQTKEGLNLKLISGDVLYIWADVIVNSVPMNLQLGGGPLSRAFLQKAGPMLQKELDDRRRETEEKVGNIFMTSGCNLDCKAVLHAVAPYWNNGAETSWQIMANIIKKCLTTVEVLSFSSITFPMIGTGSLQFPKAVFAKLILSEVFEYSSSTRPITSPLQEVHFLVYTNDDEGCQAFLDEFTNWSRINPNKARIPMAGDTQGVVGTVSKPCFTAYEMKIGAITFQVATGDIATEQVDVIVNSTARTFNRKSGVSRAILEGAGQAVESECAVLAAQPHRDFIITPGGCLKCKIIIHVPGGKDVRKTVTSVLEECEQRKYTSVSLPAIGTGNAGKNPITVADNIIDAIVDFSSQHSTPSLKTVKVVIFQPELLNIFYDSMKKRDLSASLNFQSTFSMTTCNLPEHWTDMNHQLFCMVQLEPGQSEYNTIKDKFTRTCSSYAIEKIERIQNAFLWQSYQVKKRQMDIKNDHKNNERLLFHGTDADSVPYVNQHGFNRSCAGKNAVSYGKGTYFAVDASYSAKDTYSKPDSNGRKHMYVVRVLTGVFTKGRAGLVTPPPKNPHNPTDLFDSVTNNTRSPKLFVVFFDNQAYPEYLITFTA
# assay-protocol: Inhibition of full length recombinant His6-tagged PARP15 catalytic domain (unknown origin) expressed in Escherichia coli BL21(DE3) by fluorescence based assay
quantity: IC50 (µM)
Reply numerically in µM, unit not repeated.

Lookup: // returns reported IC50 for input NC(=O)c1ccc(Oc2ccc(C(N)=O)cc2)cc1
Found: 4.17

----------
Reported values of solubility thermodynamic at 24 h for individual entries
# assay-protocol: Thermodynamic solubility of the compound in phosphate buffer at pH 7.4 after 24 hrs by HPLC/UV based shake flask method
# Assay type: physicochemical
# test-settings: read-out: Therm_solubility
Reply numerically in µM, unit not repeated.

Lookup: // returns reported solubility thermodynamic at 24 h for input NC(=O)c1ccc(Oc2cccc(C(=O)N3CCC(c4ccc(F)cc4)CC3)c2)cc1
Found: 42

Lookup: // returns reported solubility thermodynamic at 24 h for input NC(=O)c1ccc(Oc2cccc(C(=O)N3CCC(O)(c4ccc(F)cc4)CC3)c2)cc1
Found: 242

Here is another compound to look at.
Lookup: // returns reported solubility thermodynamic at 24 h for input NC(=O)c1ccc(Oc2cccc(C(=O)N3CCN(c4ccc(F)cc4)CC3)c2)cc1
Found: 60
